target.under.test: HLA-A*02:01 (Homo sapiens, UniProt P04439, D140Y/D185E/D98H/E176V/E277Q/G131W/G231S/I119V/I121R/I166T/I218V/L300P/L318F/N151K/N90K/P208A/P217A/Q86G/Q94H/R138H/R169H/T345S)
protocol.summary: MHC binding assay (UV-ligand exchange, beta2m ELISA)
recorded.conditions: binding to HLA-A*02:01, β2m ELISA
measured.endpoint: Peptide exchange (MHC class I binding score, peptide exchange yield)

// known answers, use as guide
124 (ALLLRLFTI; listed as Homo sapiens) [compound 124] | ++ (≥20% = ++)
166 (LLGDSSFFL; listed as Homo sapiens) [compound 166] | +++ (≥50 = +++)
164 (MLIIRVPSV; listed as Homo sapiens) [compound 164] | +++ (≥50 = +++)
165 (SLLDYEVSI; listed as Homo sapiens) [compound 165] | +++ (≥50 = +++)

As a next step, examine the substance that follows.
Provide Peptide exchange (MHC class I binding score, peptide exchange yield) value for the following substance: 19 (KVFELDLVTL; listed as Homo sapiens) [compound 19] ++ (≥20% = ++)

###

target.under.test: HLA-A*02:01 (Homo sapiens, UniProt P04439, D140Y/D185E/D98H/E176V/E277Q/G131W/G231S/I119V/I121R/I166T/I218V/L300P/L318F/N151K/N90K/P208A/P217A/Q86G/Q94H/R138H/R169H/T345S)
protocol.summary: MHC binding assay (UV-ligand exchange, beta2m ELISA)
recorded.conditions: binding to HLA-A*02:01, β2m ELISA
measured.endpoint: Peptide exchange (MHC class I binding score, peptide exchange yield)

155 (TLDSYLKAV; listed as Homo sapiens) [compound 155] | ++ (≥20% = ++)
233 (SLFESLEYL; listed as Homo sapiens) [compound 233] | +++ (≥50 = +++)
181 (LLWAPTAQA; listed as Homo sapiens) [compound 181] | +++ (≥50 = +++)
107 (RVLPGQAVTGV; listed as Homo sapiens) [compound 107] | ++ (≥20% = ++)
210 (GLAGDNIYL; listed as Homo sapiens) [compound 210] | +++ (≥50 = +++)
185 (TLYQGLPAEV; listed as Homo sapiens) [compound 185] | ++ (≥20% = ++)
247 (NLLIDDKGTIKL; listed as Homo sapiens) [compound 247] | ++ (≥20% = ++)

Please look at the following substance next.
Give the reported value of Peptide exchange (MHC class I binding score, peptide exchange yield) for this record: 228 (SLLELDGINLRL; listed as Homo sapiens) [compound 228] +++ (≥50 = +++)

###

target.under.test: HLA-A*02:01 (Homo sapiens, UniProt P04439, D140Y/D185E/D98H/E176V/E277Q/G131W/G231S/I119V/I121R/I166T/I218V/L300P/L318F/N151K/N90K/P208A/P217A/Q86G/Q94H/R138H/R169H/T345S)
protocol.summary: MHC binding assay (UV-ligand exchange, beta2m ELISA)
recorded.conditions: binding to HLA-A*02:01, β2m ELISA
measured.endpoint: Peptide exchange (MHC class I binding score, peptide exchange yield)

Illustrative cases are given below, each with its answer.
62 (SLVENIHVL; listed as Homo sapiens) [compound 62] | +++ (≥50 = +++)
54 (YLVPGLVAA; listed as Homo sapiens) [compound 54] | +++ (≥50 = +++)
88 (LLLPLELSLA; listed as Homo sapiens) [compound 88] | +++ (≥50 = +++)
241 (KQFEGTVEI; listed as Homo sapiens) [compound 241] | +++ (≥50 = +++)
245 (ALLEEEEGV; listed as Homo sapiens) [compound 245] | ++ (≥20% = ++)

Let me know recorded Peptide exchange (MHC class I binding score, peptide exchange yield) for 125 (AALEVLAEV; listed as Homo sapiens) [compound 125] , thanks. +++ (≥50 = +++)

Using the record for 94 (YLDEVAFML; listed as Homo sapiens) [compound 94] , state its measured Peptide exchange (MHC class I binding score, peptide exchange yield). +++ (≥50 = +++)

Please indicate Peptide exchange (MHC class I binding score, peptide exchange yield) recorded for 184 (ALDSTIAHL; listed as Homo sapiens) [compound 184] ++ (≥20% = ++)

Report Peptide exchange (MHC class I binding score, peptide exchange yield) for 25 (LLWGHPRVALA; listed as Homo sapiens) [compound 25] +++ (≥50 = +++)
